Data provenance is PubChem BioAssay (Tox21).

Experiment: qHTS RealTime-Glo MT Cell Viability Assay in HEK293 cells - 40 hour (AID 1224874); further: on the % scale 0 is the no-effect control and ±100 the full control effect; nearly all actives have a fitted effect of over 50% in size
Conditions: RealTime-Glo luminescence; hits give low values
Text: U.S. Tox21 Program National Center for Advancing Translational Sciences [NCATS] NIH Chemical Genomics Center [NCGC] U.S. Environmental Protection Agency [EPA] National Institutes of Environmental Health Sciences [NIEHS] National Toxicology Program [NTP] U.S. Food and Drug Administration [FDA] Tox21 Assay Overview: Measure of cell viability is critical in the cell-base assay. Analysis of cell viability is necessary for the characterization of cell responses to cytotoxic drugs and environmental stress. […]
Inconclusive results are not listed.

compoundStructure	u	max response
Cc1cccc(C)c1[N+](=O)[O-]	%	-0.329
O=C1OC(=O)c2c(Cl)c(Cl)c(Cl)c(Cl)c21	%	1.44
Cc1ccccc1Cl	%	1.86
O=c1c(O)c(-c2ccc(O)c(O)c2)oc2cc(O)cc(O)c12	%	-22.5
O=C(c1ccccc1)c1ccc(O)c(O)c1O	%	-18.4

====

assay: qHTS assay to identify small molecule agonists of the estrogen receptor alpha (ER-alpha) signaling pathway in the presence of an antagonist - cell viability counter screen (AID 1259386); conditions: VM7Luc4E2 viability, CellTiter-Fluor fluorescence, 22 h; series mostly up to 92.4 µM;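 further: cells exposed to compounds for 22 h at 37 °C before the viability read; nearly all actives have a fitted effect of over 30% in size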
Records with an inconclusive call do not appear. The source made the active and inactive calls. Calls come from the whole dose curve; as a rule, active = well fitted cell-killing curve with a large enough effect in the repeat runs; inconclusive = weak or mixed curves, or effect the other way; inactive = no such curve, though single readings can be large or run the other way.
Possible outcomes: active, inactive

compound	category
CCCCCC(C)=O	inactive
CC(=O)C(C)C	inactive
CC1=CC(=O)CC(C)(C)C1	inactive
O=C(Cl)c1ccc(C(=O)Cl)cc1	inactive
O=C(c1ccccc1)c1ccc(O)c(O)c1O	active
CN=C(NC#N)NCCSCc1nc[nH]c1C	inactive
Brc1ccc(Oc2ccc(Br)cc2)cc1	inactive
Cc1ccc(C)c(S(=O)(=O)O)c1	inactive
C[Si](C)(C)N[Si](C)(C)C	inactive
O=C1C(N(CO)C(=O)NCO)N(CO)C(=O)N1CO (stereo unspecified)	inactive
COc1ccc(N)c(OC)c1	inactive
C=C(C)CC(C)(C)C	inactive
CN1CCCC1=O	inactive
O=C1CCCCCCCCCCC1	inactive
C[n+]1ccn(CCO)c1	inactive
O=Cc1ccc(CO)o1	inactive

====

experiment: qHTS assay to identify small molecule antagonists of the glucocorticoid receptor (GR) signaling pathway - cell viability counter screen (AID 720693); details: GR-bla HeLa viability, CellTiter-Glo luminescence, 18 h, with 5 nM dexamethasone present; series mostly up to 58.5 µM; further: on the % scale 0 is the no-effect control and ±100 the full control effect; nearly all actives have a fitted effect of over 55% in size
Results filed as inconclusive are left out. Active and inactive are the calls of the source. The call rests on the fitted dose curve; in most records, active means well fitted cell-killing curve with a large enough effect in the repeat runs; inconclusive means weak or mixed curves, or effect the other way; inactive means no such curve, though single readings can be large or run the other way.

molecule	outcome
Clc1cccc(Cl)c1NC1=NCCN1	inactive
O=C(O)C1=NN(c2ccc(S(=O)(=O)O)cc2)C(=O)C1	inactive
Brc1ccc(Oc2ccc(Br)cc2)cc1	inactive
COc1ccc2cc3[n+](cc2c1OC)CCc1cc2c(cc1-3)OCO2	inactive
CCCCCCCC(=O)O	inactive
CC/C(C)=N/O	inactive
CC(=O)c1nccs1	inactive
COC(=O)/C=C\C(=O)OC	inactive
CCOC(=O)c1ccc(O)cc1	inactive
NC1CCCCC1N (stereo not given)	inactive
CC(=O)OCc1ccc2c(c1)OCO2	inactive
COc1ccc(N)c(OC)c1	inactive
C=C(C)CC(C)(C)C	inactive
Nc1nc(N)c2nc(-c3ccccc3)c(N)nc2n1	inactive
CC/C=C(\C(=O)N[C@@H]1C(=O)N2C(C(=O)OCOC(=O)C(C)(C)C)=C(COC(N)=O)CS[C@H]12)c1csc(N)n1	inactive
CCCCC(=O)O	inactive
CC(=O)OC[C@H]1O[C@@](COC(C)=O)(O[C@H]2O[C@H](COC(C)=O)[C@@H](OC(C)=O)[C@H](OC(C)=O)[C@H]2OC(C)=O)[C@@H](OC(C)=O)[C@@H]1OC(C)=O	inactive
NCCNCCNCCN	inactive
CCCCCNCCCCC	inactive
NC(=O)c1ncn([C@@H]2O[C@H](CO)[C@@H](O)[C@H]2O)n1	inactive
O=Cc1ccc(CO)o1	inactive
Cc1cc(C)cc(O)c1	inactive
CC(C)(C)NC[C@H](O)COc1nsnc1N1CCOCC1	inactive
Cc1cc(CC(=O)O)n(C)c1C(=O)c1ccc(Cl)cc1	inactive
O=C1O[C@H]([C@H](O)CO)C(O)=C1O	inactive
C1CCCNCC1	inactive
Cc1ccc(C(C)C)cc1	inactive
C=C(CC(=O)O)C(=O)O	inactive
NC(N)=S	inactive
O=C1CCCCCCCCCCC1	inactive
